# Tested target: T1, human VEGF165 (human, UniProt P15692)
# T1 chain: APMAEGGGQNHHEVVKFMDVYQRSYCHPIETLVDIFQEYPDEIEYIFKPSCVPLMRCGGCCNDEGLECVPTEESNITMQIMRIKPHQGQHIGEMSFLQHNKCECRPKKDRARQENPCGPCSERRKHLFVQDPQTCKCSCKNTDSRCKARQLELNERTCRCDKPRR
# Method: SPR, pH 7.4
Returns: string. Value is Met if measured Kd is below 3 nM, and Not met if it is greater than or equal to it.

# count of solved cases: 3
Binder | Category label
511-min (antibody, V domains shown) VH: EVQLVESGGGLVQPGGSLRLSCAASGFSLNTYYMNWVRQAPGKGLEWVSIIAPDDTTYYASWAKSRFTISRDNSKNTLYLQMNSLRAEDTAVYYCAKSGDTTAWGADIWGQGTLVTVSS VL: EIVMTQSPSTLSASVGDRVIITCQASQSINIWCSWYQQKPGKAPKLLIYRASTLASGVPSRFSGSGSGAEFTLTISSLQPDDFATYYCQANYAYSAGYGAAFGQGTKLTVLG | Met
578-min (antibody, V domains shown) VH: EVQLVESGGGLVQPGGSLRLSCAASGFSLTDYYYMTWVRQAPGKGLEWVSFIDPDDDPYYATWAKGRFTISRDNSKNTLYLQMNSLRAEDTAVYYCAKGDHNSGWGLDIWGQGTLVTVSS VL: EIVMTQSPSTLSASVGDRVIITCQASEIIHSWLAWYQQKPGKAPKLLIYLASTLASGVPSRFSGSGSGAEFTLTISSLQPDDFATYYCQNVYLASTNGANFGQGTKLTVLG | Met
375-max (antibody, V domains shown) VH: EVQLVESGGGLVQPGGSLRLSCKASGFSFTTTDYMCWVRQAPGKGLEWVGCILAGDGSTYYANWAKGRFTGSKDTSKNTVYLQMNSLRAEDTAVYYCARSDPASSWSFALWGQGTLVTVSS VL: EIVMTQSPSTLSASVGDRVIITCQASENINIWLSWYQQKPGKAPKLLIYQASKLASGVPSRFSGSGSGTQFTLTISSLQPDDFATYYCQNNYSYNRYGAPFGQGTKLTVLG | Not met

Incoming: Check if Kd falls below 3 nM for 509-maxII (antibody, V domains shown) VH: EVQLVESGGGLVQPGGSLRLSCTASGFSLSSYYMSWVRQAPGKGLEWVGILDYVGDTDYASWAKGRFTISKDASKNTVYLQMNSLRAEDTAVYYCARTDDSRGWGLNIWGQGTLVTVSS VL: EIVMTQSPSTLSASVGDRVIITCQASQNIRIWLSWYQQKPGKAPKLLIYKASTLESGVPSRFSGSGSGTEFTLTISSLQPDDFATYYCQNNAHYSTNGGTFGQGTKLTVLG .
Outgoing: Met

// data source = patent US10590193
